This section presents compounds with their documented pIC50 values.
# measurementTarget: PDE4 enzyme
# methodDescription: Inhibition of Phosphodiesterase Enzymes (PDE4), [3H]cAMP hydrolysis assay
# Type: biochemical
# conditions: PDE4 inhibition, 1 μM cAMP, 34° C., 20 minutes
pIC50 field: float, defined as -log10 of concentration (mol/L).

Worked examples follow.
- compound: "COc1ccc(C(=O)Nc2c(Cl)cncc2Cl)c2c1oc1ccc(NC(=O)OCC3CC3)cc12 [Example 18]"
  measurementTarget: "PDE4 enzyme"
  pIC50: 8.46
- compound: "CCOC(=O)C(=O)Nc1ccc2oc3c(OC)ccc(C(=O)Nc4c(Cl)cncc4Cl)c3c2c1 [Example 08]"
  measurementTarget: "PDE4 enzyme"
  pIC50: 8.33
- compound: "COc1ccc(C(=O)Nc2c(Cl)cncc2Cl)c2c1oc1ccc(NC(=O)NCC(=O)O)cc12 [Example 51]"
  measurementTarget: "PDE4 enzyme"
  pIC50: 8.70

Kindly consider the entry below.
GET /values?readout=pIC50&item= COc1ccc(C(=O)Nc2c(Cl)cncc2Cl)c2c1oc1ccc(NC(=O)OCC(F)(F)F)cc12 [Example 19] 8.32
